# Test system: HepG2 cell line
# method notes: In vitro toxicity study on HepG2 cell line (resazurin, viability and IC50)
# Assay type: cell-based, human
# settings: HepG2 cells, 200 μM lipid, 48 h post-treatment, resazurin, relative to ethanol vehicle controls
property name: Viability (%) at different lipid concentrations, mean
All answers are understood in %, so give the number only.

// Viability (%) at different lipid concentrations, mean lookup, key: CCCCC/C=C\C/C=C\CCCCCCCCOC(CCCCCCC/C=C\C/C=C\CCCCC)O[Si](C)(C)OCCCCCCN(CCCO)CCCO (stereo not shown) [Example 61]
14.9

Requested field: Viability (%) at different lipid concentrations, mean. Item: CCCCCCCC/C=C\CCCCCCCCOC(=O)C(C)(C)CC(OCCCCCCCC/C=C\CCCCCCCC)O[Si](C)(C)OCCCCCCN1CCCCC1 (stereo not shown) [Example 87]
102.1

Name the reported Viability (%) at different lipid concentrations, mean value associated with the molecule CCCCCCCC/C=C\CCCCCCCCOC(CCCCCCC/C=C\CCCCCCCC)O[Si](C)(C)OCCCCCCN(C)[C@H](CO)Cc1ccccc1 (stereo partly shown) [Example 78]
100.8

What value of Viability (%) at different lipid concentrations, mean has been recorded for this entry: CCCCC/C=C\C/C=C\CCCCCCCCO[Si](C)(C)OC(CCCCCCC/C=C\C/C=C\CCCCC)OCCCN(C)C (stereo not shown) [Example 80]
69.13

What value of Viability (%) at different lipid concentrations, mean has been reported for the following molecule? CCCCC/C=C\C/C=C\CCCCCCCCOC(CC[C@@H](C)C1CCC2C3CCC4C[C@H](OC)CC[C@]4(C)C3CC[C@@]21C)O[Si](C)(C)OCCCCCCN(CCO)CCO (stereo partly shown) [Example 52]
76.7

// returns reported Viability (%) at different lipid concentrations, mean for input CCCCC/C=C\C/C=C\CCCCCCCCOC(CCCCCCC/C=C\C/C=C\CCCCC)O[Si](C)(C)OCCCCCCN(C)CCO (stereo not shown) [Example 56]
100.1

Look at this molecule and give its reported Viability (%) at different lipid concentrations, mean. CCCCC/C=C\C/C=C\CCCCCCCCOC(CCCCCCC/C=C\C/C=C\CCCCC)O[Si](C)(C)OCCCCCCN(C)CCCCO (stereo not shown) [Example 60]
101.1

Dear colleague, I am looking for the recorded Viability (%) at different lipid concentrations, mean of the following molecule: CCCCC/C=C\C/C=C\CCCCCCCC(OCCCCCCCCCCCCCCCC)O[Si](C)(C)OCCCCCCN(CCO)CCO (stereo not shown) [Example 44]
118.8

For the molecule shown here, CCCCCCCC/C=C\CCCCCCCCOC(=O)C(C)(C)CC(OCCCCCCCC/C=C\CCCCCCCC)O[Si](C)(C)OCCCCCCN(C)CC(O)CO (stereo not shown) [Example 92] , give the reported Viability (%) at different lipid concentrations, mean.
80.7

// returns reported Viability (%) at different lipid concentrations, mean for input CCCCCCCC/C=C\CCCCCCCCOC(=O)C(C)(C)CC(OCCCCCCCC/C=C\CCCCCCCC)O[Si](C)(C)OCCCCCCN1CCCC1CO (stereo not shown) [Example 90]
104.9

Fill in: Viability (%) at different lipid concentrations, mean of CCCCCCCCO[Si](C)(C)O[Si](C)(C)OC(CCCCCCC)OCCCCCCN(C)CCN(C)CCN(C)CCCCCCOC(CCCCCCC)O[Si](C)(C)O[Si](C)(C)OCCCCCCCC (stereo not shown) [Example 83] is ___
41.91

Find the recorded Viability (%) at different lipid concentrations, mean belonging to CCCCC/C=C\C/C=C\CCCCCCCCOC(CCCCCCC/C=C\C/C=C\CCCCC)O[Si](C)(C)OCCCCCCN1CCOCC1 (stereo not shown) [Example 55] and report it.
90.7

Find the recorded Viability (%) at different lipid concentrations, mean belonging to CCCCCCCC/C=C\CCCCCCCCOC(=O)C(C)(C)CC(OCCCCCCCC/C=C\CCCCCCCC)O[Si](C)(C)OCCCCCCN(C)CCCCO (stereo not shown) [Example 91] and report it.
88.0

Quick one: Viability (%) at different lipid concentrations, mean of CCCCC/C=C\C/C=C\CCCCCCCCO[Si](C)(C)OC(CCCCCCC/C=C\C/C=C\CCCCC)OCCCCCCN(CCO)CCO (stereo not shown) [Example 40] ?
115.3

Any idea what Viability (%) at different lipid concentrations, mean was measured for CCCCC/C=C\C/C=C\CCCCCCCCOC(CCCCCCC/C=C\C/C=C\CCCCC)O[Si](C)(C)OCCCCCCN(CCO)CCO (stereo not shown) [Example 48] ?
101.5

Which Viability (%) at different lipid concentrations, mean value is on record for CCCCCCCC/C=C\CCCCCCCC(OCCCCCCCCCCCCCCCC)O[Si](C)(C)OCCCCCCN(CCO)CCO (stereo not shown) [Example 42] ?
117.1
